Measured values drawn from patent US9890133B2 for this set.

test system: Echo 9; test: Multicycle CPE reduction assay, Echo 9; assay type: cell-based; conditions: MRC5; incubation at 37° C. in MRC-5 cells; read-out: Echo 9 EC50
measured.attribute: EC50 (nM)
Write the answer as a number in nM, unit excluded.

INPUT: Find the measured EC50 of CC(C)c1ccc2c(c1)OC1(O)c3ccccc3C(=O)C21O (stereo not shown) and report it.
OUTPUT: 25

====

A collection of molecules and their measured CC50
assay: in vitro; settings: human, Picorana CC50
Write the answer as a number in µg/mL, unit excluded.

Sample records with CC50:
[[record]]
molecule = "CC(C)c1ccc2c(c1)OC1(O)c3cccc(N4CCOCC4)c3C(=O)C21O (centres unmarked)"
measurement_unit = "µg/mL"
recorded_number = 18.7

[[record]]
molecule = "CC(C)c1ccc2c(c1)OC1(O)c3ccccc3C(=O)C21NC(=O)c1cc2ccccc2oc1=O (centres unmarked)"
measurement_unit = "µg/mL"
recorded_number = 22.9

[[record]]
molecule = "CCC(=O)N[C@@]12C(=O)c3c(N)cccc3[C@]1(OC(=O)CC)Oc1cc(C(C)C)ccc12"
measurement_unit = "µg/mL"
recorded_number = 42.4

[[record]]
molecule = "CC(C)c1ccc2c(c1)OC1(O)c3cccc(N4CCCCC4)c3C(=O)C21O (centres unmarked)"
measurement_unit = "µg/mL"
recorded_number = 3.47

[[record]]
molecule = "CC(C)c1ccc2c(c1)OC1(O)c3cccc(N)c3C(=O)C21NC(=O)c1cc2ccccc2cn1 (centres unmarked)"
measurement_unit = "µg/mL"
recorded_number = 4.99


Okay, next one:
INPUT: Find the measured CC50 of CC(C)c1ccc2c(c1)OC1(O)c3ccccc3C(=O)C21NC(=O)c1nc2ccccc2[nH]1 (centres unmarked) and report it.
OUTPUT: 9.62
